Test system: Pfa1 cells
Experiment: Inhibition of non-apoptotic cell death after tamoxifen-induced GPx4 knockout in a recombinant cell line (Example B.4)
Assay type: cell-based
Details: Mus musculus, read-out: Pfa1/TAM IC50
Description: Inhibition of Non-Apoptotic Cell-Death by Compounds Disclosed Herein Using a Recombinant Cell Line To combat high intracellular ROS levels, mammalian cells have evolved an intricate network of ROS scavenging in cells, in which the thioredoxin and glutathione (GSH) dependent systems prevail. […] Knockout of GPx4 in neurons causes massive neurodegeneration in cortical, cerebellar and hippocampal neurons underscoring the high relevance of ROS-induced cell death signaling in the brain. […]
Known IC50 of a selection of compounds

Solved entries:
compound `c1ccc(CNC2=Nc3ccccc3NC23CCCCCC3)cc1` , IC50 observed: < 500 nM

compound `Fc1ccc(CNC2=Nc3ccccc3NC23CCSCC3)c(F)c1` , IC50 observed: > 5000 nM

compound NC1CCC2(CC1)Nc1ccccc1N=C2NCc1ccccc1 (stereo not drawn) , IC50 observed: < 200 nM

---
compound `Clc1ccc(CNC2=Nc3cc(Cl)c(Cl)cc3NC23CCNCC3)cc1Cl` , IC50 observed: < 100 nM

compound `Fc1cccc(F)c1CNC1=Nc2ccccc2NC12CCCCC2` , IC50 observed: < 200 nM

compound `Fc1cc(Cl)ccc1CNC1=Nc2ccccc2NC12CCOCC2` , IC50 observed: < 1000 nM
